Assay: AUC (0 to last) in male CD1 mouse at 30 mg/kg, po compound dissolved in water measured after 24 hrs by LC-MS/MS analysis
Type: ADME, organism-based
Design: route oral, time 24 hrs, dose 30 mg/kg
Conditions: in vivo
property: AUC(0-t) at 24 h (ng·h/mL)
Answer format: numeric, ng·h/mL implied, no suffix.

Which value of AUC(0-t) at 24 h has been reported for CC(=O)Nc1ncc(CN2CCC3(CCN(c4cc(C)nc5ccccc45)C3)C2)s1 (single isomer, unassigned; (+)) in the records? 1940

====

Assay: Cmax in male CD1 mouse at 30 mg/kg, po compound dissolved in water measured after 24 hrs by LC-MS/MS analysis
Assay type: ADME, organism-based
Set-up: route oral, dose 30 mg/kg, time 24 hrs
Conditions: in vivo
property: Cmax (ng/mL)
Answer format: numeric, ng/mL implied, no suffix.

Which value of Cmax has been reported for CC(=O)Nc1ncc(CN2CCC3(CCN(c4cc(C)nc5ccccc45)C3)C2)s1 (single isomer, unassigned; (+)) in the records? 331
